The origin of these recorded values is paper PMC5540273.

Tested on: GSK3A
measurement-conditions: concentration: 1 μM, replicates: in singlicate; n = 1;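 further: KINOMEscan kinase panel screen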
Listed next: entries and their corresponding %Inh.

molecule	units-symbol	%Inh
Nc1nc(-c2ccc3c(N)n[nH]c3c2)cc(N2CCCC2)n1 [GSK2227430]	%	0
CN1c2ccc(NCc3ccc(F)cc3)cc2-c2c(cnn2C)S1(=O)=O	%	22
Cc1nnc(-c2ccc3ncc(-c4ccc(S(C)=O)cc4)n3c2)o1 (stereo not drawn)	%	1

---

Test system: PDGFRB
measurement-conditions: concentration: 1 μM, replicates: in singlicate; n = 1

molecule	units-symbol	%Inh
CCn1cnc2c(N)ncnc21	%	24
COc1cc2ncn(-c3cc(OCc4sccc4Cl)c(C(N)=O)s3)c2cc1OC	%	76
c1ccc(-c2cc(-c3c[nH]nc3-c3ccccn3)ccn2)cc1	%	17
NS(=O)(=O)CCc1cccc(Nc2nccc(-c3c(-c4cccc(NC(=O)c5c(F)cccc5F)c4)nn4ccccc34)n2)c1	%	100
O=c1cc(N2CCOCC2)nc2n(Cc3cccc(C(F)(F)F)c3)ccn12	%	22
CC(C)Oc1ccc2c(-c3ccnc(Nc4ccc(N5CCN(C)CC5)cc4)n3)cnn2n1	%	97.2
NS(=O)(=O)c1cccc(-c2ccc3ncc(N4CCOCC4)nc3c2)c1	%	21
COc1ccc(Nc2nccc(N3CCC(NC(=O)Nc4cc(C)ccc4C)C3)n2)cc1 (centres unmarked)	%	2
O=C(c1ccc(-c2cc(-c3c[nH]nc3-c3ccccn3)ccn2)cc1)N1CCOCC1	%	0
CNc1ncnc2[nH]ncc12	%	0
CCc1nc(-c2cccc(C)c2)c(-c2ccnc(NCc3ccccc3)c2)s1	%	39
O=c1cc(N2CCOCC2)nc2n(Cc3cccc(Cl)c3Cl)c(C3CC3)nn12	%	2
Cc1cccc(-c2nc(Nc3ccc4ncsc4c3)c3ccccc3n2)n1	%	0
Cn1ccc2ncnc(Oc3ccc(NC(=O)Nc4ccncc4)c(Cl)c3)c21	%	16

---

System: CDK4
measurement-conditions: concentration: 1 μM, replicates: in singlicate; n = 1
%Inh below 2% gives No; %Inh at or above it gives Yes.

molecule	group
COc1ccc(Nc2nccc(N3CCC(NC(=O)Nc4cccc(C(C)=O)c4)C3)n2)cc1 (stereo not shown)	Yes
c1ccc(-c2n[nH]cc2-c2ccnc3ccccc23)nc1	No
CC(C)Oc1ccc2c(-c3ccnc(Nc4ccc(N5CCN(C)CC5)cc4)n3)cnn2n1	Yes
CC(C)(C)n1cnc2c(N)ncnc21	No
Cn1ccc2ncnc(Oc3ccc(NC(=O)Nc4ccncc4)c(Cl)c3)c21	No
NS(=O)(=O)c1cccc(-c2ccc3nccc(-c4cccc(S(N)(=O)=O)c4)c3c2)c1	Yes

---

Test system: WNK3
measurement-conditions: concentration: 1 μM, replicates: in singlicate; n = 1

compound	%Inh / %
CN1c2ccc(NCc3ccc(F)cc3)cc2-c2c(cnn2C)S1(=O)=O	8
O=C1Cc2cc(Nc3nc(NCc4cccc(S(=O)(=O)C(F)(F)F)c4)ncc3C(F)(F)F)ccc2N1	0
Cc1nnc(-c2ccc3ncc(-c4ccc(S(C)=O)cc4)n3c2)o1 (centres unmarked)	0
O=C(NCCNc1ccnc(Nc2ccc(F)cc2)n1)c1cc2ccccc2s1 [GSK1379874]	16
COc1ccc(COc2cc(-n3cnc4ccccc43)sc2C(N)=O)cc1 [GSK1024304]	12
O=c1cc(N2CCOCC2)nc2n(Cc3cccc(C(F)(F)F)c3)ccn12 [GSK2297543]	19
Cc1nnc(-c2ccc(C)c(-c3ccc(C(=O)Nc4ccc(NS(C)(=O)=O)cc4)cc3)c2)o1 [GW702865]	35
COc1cc(Nc2nccc(N3CCC(NC(=O)c4cccc(NC(C)=O)c4)C3)n2)cc(OC)c1OC (centres unmarked) [GSK1379754]	14
NS(=O)(=O)c1cccc(-c2ccc3nccc(-c4cccc(S(N)(=O)=O)c4)c3c2)c1 [GW867253]	0
Cn1cc(-c2ccc3c(c2)CCN3C(=O)Cc2ccccc2Cl)c2c(N)ncnc21 [GSK2608885]	6
O=C1NC(=O)C(N2CCc3ccccc32)=C1c1cccc(Cl)c1 [SB-408010]	0
O=c1cc(N2CCOCC2)nc2n(Cc3cccc(F)c3)ccn12 [GSK2297430]	8
C[C@@H](Oc1cc(-n2cnc3ccc(NC(=O)NC(C)(C)C)cc32)sc1C(N)=O)c1ccccc1Cl [GSK346294]	33
O=C(Nc1cccc(-c2nn3ncccc3c2-c2ccnc(Nc3cccc(C(F)(F)F)c3)n2)c1)c1c(F)cccc1F [GSK299495]	44
O=C(NCCNc1ccnc(Nc2ccc(F)cc2)n1)Nc1ccccc1F [GSK1379880]	4
CCn1cnc2c(N)ncnc21 [GW345098]	0
c1ccc(-c2cc(-c3c[nH]nc3-c3ccccn3)ccn2)cc1 [GW576604]	0
CC(C)Oc1ccc2c(-c3ccnc(Nc4ccc(N5CCN(C)CC5)cc4)n3)cnn2n1 [GW696155]	52
N#Cc1c(N2CCOCC2)sc(-c2ccn[nH]2)c1-c1ccc(Cl)cc1	14
[2H]C([2H])(c1cccc(C(F)(F)F)c1C)n1ccn2c(=O)nc(N3CCOCC3)cc12 [GSK2336394]	28
Cc1cccc(-c2nc(Nc3ccc4ncsc4c3)c3ccccc3n2)n1 [GW867588]	31
COc1ccc(S(=O)(=O)NC2CCN(c3cc(C)nc(Nc4cccc(C#N)c4)n3)CC2)cc1.O=C(O)C(F)(F)F [GSK1653539]	38
COC(=O)Nc1nc2cc(Oc3ccc(NC(=O)Nc4cc(F)ccc4F)cc3)ccc2[nH]1.Cl [GW701424]	48
O=C(NOCC1CC1)c1ccc(F)c(F)c1Nc1ccc(I)cc1Cl	0
O=C(NCCCN1CCOCC1)c1cccc(Nc2nccc(Nc3ccc(Oc4ccccc4)cc3)n2)c1 [GW663929]	33
Cc1ccc(NC(=O)c2ccnc(N3CCN(C)CC3)c2)cc1-c1ccc(C(=O)NCC2CC2)cc1 [GW775604]	0
COc1cc2c(cc1OCCN1CCN(C)CC1)ncc1c3ccc(C#N)cc3[nH]c21	0
Cc1c2ccc(N(C)c3ccnc(Nc4cccc(S(N)(=O)=O)c4)n3)cc2nn1Cc1ccccc1.Cl.Cl [GW787226]	0
c1ccc(-c2n[nH]cc2-c2ccnc3ccccc23)nc1 [GW271431]	15
